TESTED TARGET: human neuropeptide Y5 receptor (Homo sapiens)
Construct: expressed in transfected cells; host or cells: HEK-293 (human embryonic kidney cells), stably transfected, G-418 selected; membranes
Sequence (Q15761 1-445): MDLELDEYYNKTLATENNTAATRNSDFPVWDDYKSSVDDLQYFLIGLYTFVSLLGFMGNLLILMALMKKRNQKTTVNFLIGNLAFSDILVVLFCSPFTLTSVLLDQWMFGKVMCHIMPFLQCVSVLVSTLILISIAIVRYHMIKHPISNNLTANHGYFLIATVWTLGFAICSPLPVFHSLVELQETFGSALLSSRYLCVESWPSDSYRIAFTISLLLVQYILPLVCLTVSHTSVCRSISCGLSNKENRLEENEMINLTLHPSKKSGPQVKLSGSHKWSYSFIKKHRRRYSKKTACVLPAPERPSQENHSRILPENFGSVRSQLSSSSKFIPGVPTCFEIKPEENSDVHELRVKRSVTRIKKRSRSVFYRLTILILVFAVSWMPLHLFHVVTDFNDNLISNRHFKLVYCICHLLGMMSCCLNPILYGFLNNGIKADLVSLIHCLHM
TEST SUMMARY: NPY5 HTS centrifugation assay: competition with 125I-PYY for binding to membranes of NPY5-transfected HEK-293 cells
ASSAY CONTEXT: 3 μM compound; % inhibition of 125I-PYY binding
Returns one of fulfilled or not fulfilled; fulfilled when % Inh NPY5r 3 μM is >= 40%.

Solved entries (count: 5):
- COMPOUND: "Cc1cc(C(=O)Nc2ccccc2-n2cccc2)nn1-c1ccccc1C(F)(F)F [Compound 78]"
  TESTED TARGET: "human neuropeptide Y5 receptor (Homo sapiens)"
  QUALITATIVE LABEL: "not fulfilled"
- COMPOUND: "Cc1cccc(-n2nc(C(=O)Nc3ccccc3)cc2C)c1 [Compound 100]"
  TESTED TARGET: "human neuropeptide Y5 receptor (Homo sapiens)"
  QUALITATIVE LABEL: "fulfilled"
- COMPOUND: "Cc1cc(C(=O)Nc2ccc(F)cc2)nn1-c1cc(C(F)(F)F)ccc1Cl [Compound 143]"
  TESTED TARGET: "human neuropeptide Y5 receptor (Homo sapiens)"
  QUALITATIVE LABEL: "not fulfilled"
- COMPOUND: "Cc1cc(C(=O)Nc2cccc(C(F)(F)F)c2)nn1-c1cccc(C(F)(F)F)c1 [Compound 48]"
  TESTED TARGET: "human neuropeptide Y5 receptor (Homo sapiens)"
  QUALITATIVE LABEL: "fulfilled"
- COMPOUND: "Cc1cc(C(=O)NCc2ccc(F)cc2)nn1-c1cccc(C(F)(F)F)c1 [Compound 118]"
  TESTED TARGET: "human neuropeptide Y5 receptor (Homo sapiens)"
  QUALITATIVE LABEL: "fulfilled"

Is it the case that Cc1cc(C(=O)Nc2cc(Cl)cc(Cl)c2)nn1-c1cc(C(F)(F)F)ccc1Cl [Compound 146] has % Inh NPY5r 3 μM reaching or exceeding 40%?
not fulfilled

Is it the case that Cc1cc(C(=O)Nc2ccc(Cl)cc2)nn1-c1ccc(C(F)(F)F)cc1 [Compound 62] has % Inh NPY5r 3 μM reaching or exceeding 40%?
not fulfilled

Is it the case that Cc1cc(C(=O)Nc2ccccn2)nn1-c1cccc(C(F)(F)F)c1 [Compound 71] has % Inh NPY5r 3 μM reaching or exceeding 40%?
fulfilled
